experiment: ACEA_ER_AUC_viability: ACEA Biosciences xCELLigence Real-Time Cell Analysis on Estrogen Receptor Agonism for Viability (AID 2283782);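 note: continuous compound exposure with impedance area under curve over 80 h; hit means loss of impedance signal meaning reduced cell growth or viability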
Results filed as inconclusive are left out. Activity calls are given as the source filed them. Rule for the calls: active = hit-call score of the fitted dose curve at least 0.9, where 1 is the maximum; inconclusive = response in the unintended direction; inactive = score below 0.9.
property name: AC50

Below: 5 molecules and their reported AC50.
molecule	AC50
CCOC(=O)CCC(C)=O	inactive
CCN(CC)c1ccc2c(c1)Oc1cc(N(CC)CC)ccc1C21OC(=O)c2ccccc21	8.06 µM (active)
O=S(=O)(Cl)C(F)(F)C(F)(F)C(F)(F)C(F)(F)C(F)(F)C(F)(F)C(F)(F)C(F)(F)F	inactive
OCCCCl	inactive
Nc1c(Br)cc([N+](=O)[O-])cc1Br	inactive

Req: Output AC50 of CCCCC(CC)COC(=O)c1ccc(N(C)C)cc1 (configuration not stated)
Resp: 87.8 µM (active)

Req: Output AC50 of `NC(O)(C(F)(F)F)C(F)(F)F`
Resp: inactive

Req: Output AC50 of CCCCOC(=O)C(C)O (configuration not stated)
Resp: inactive

Req: Output AC50 of CCC(=O)OC(C)c1ccccc1 (configuration not stated)
Resp: 79.9 µM (active)

Req: Output AC50 of `O=C1C=CC(=O)N1c1ccc(Cc2ccc(N3C(=O)C=CC3=O)cc2)cc1`
Resp: 25.1 µM (active)

Req: Output AC50 of `Cc1cc(C)c(O)c(C(C)(C)C)c1`
Resp: 90.6 µM (active)

Req: Output AC50 of `O=C(Cl)C(F)(F)C(F)(F)C(F)(F)C(F)(F)C(F)(F)C(F)(F)F`
Resp: inactive

---

test: ATG_PPRE_CIS: Attagene CIS-FACTORIAL HepG2 Assay for human Peroxisome Proliferator-activated Response Element (PPRE) (AID 2282958); settings: HepG2 PPRE cis-element reporter, Attagene transcription factor profiling; actives raise or lower the signal
Calls of active or inactive are those of the source. Rule for the calls: active = hit-call score of the fitted dose curve at least 0.9, where 1 is the maximum; inactive = score below 0.9.
Thanks in advance; please answer with one of these: active, inactive

Solved cases below.
compound	answer label
O=C1c2ccccc2C(=O)c2c(Cl)cccc21	inactive
Brc1nc2ccccc2s1	active
F[Si-2](F)(F)(F)(F)F	inactive
CC(=O)c1ccccc1N	inactive
Cc1cc(C)c(O)c(C(C)(C)C)c1	inactive

Req: // param item: CCCCC(CC)COC(=O)c1ccc(N(C)C)cc1 (stereo not drawn) ; yields the recorded call
Resp: active

Req: // param item: `CCN(CCO)S(=O)(=O)C(F)(F)C(F)(F)C(F)(F)C(F)(F)C(F)(F)C(F)(F)C(F)(F)C(F)(F)F` ; yields the recorded call
Resp: inactive

Req: // param item: `COCCC(=O)OC` ; yields the recorded call
Resp: inactive

Req: // param item: CCCCOC(=O)C(C)O (stereo not drawn) ; yields the recorded call
Resp: inactive

Req: // param item: `COC(=O)c1ccc(C=O)cc1` ; yields the recorded call
Resp: inactive

Req: // param item: `OCCCc1cccnc1` ; yields the recorded call
Resp: inactive

Req: // param item: `O=C1C=CC(=O)N1c1ccccc1` ; yields the recorded call
Resp: inactive

Req: // param item: `Cc1cccc(C)n1` ; yields the recorded call
Resp: inactive

Req: // param item: `O=c1cccc[nH]1` ; yields the recorded call
Resp: inactive

Req: // param item: `O=C(F)C1(F)C(F)(F)C(F)(F)C(F)(F)C(F)(F)C1(F)F` ; yields the recorded call
Resp: inactive

Req: // param item: `FC(F)(F)C(F)(F)C(F)(F)C(F)(F)C(F)(F)C(F)(F)CC[Si](Cl)(Cl)Cl` ; yields the recorded call
Resp: inactive

Req: // param item: `CCN(CC)c1ccc(C=O)c(O)c1` ; yields the recorded call
Resp: inactive

Req: // param item: OCC(O)CC(F)(F)C(F)(F)C(F)(F)C(F)(F)F (stereo not drawn) ; yields the recorded call
Resp: inactive
